Target: Cathepsin D (Cat D) (Homo sapiens)
Construct: Recombinant Cat D was expressed in CHO cells; made in house; host or cells: CHO cells
Sequence (P07339 65-412, species assumed): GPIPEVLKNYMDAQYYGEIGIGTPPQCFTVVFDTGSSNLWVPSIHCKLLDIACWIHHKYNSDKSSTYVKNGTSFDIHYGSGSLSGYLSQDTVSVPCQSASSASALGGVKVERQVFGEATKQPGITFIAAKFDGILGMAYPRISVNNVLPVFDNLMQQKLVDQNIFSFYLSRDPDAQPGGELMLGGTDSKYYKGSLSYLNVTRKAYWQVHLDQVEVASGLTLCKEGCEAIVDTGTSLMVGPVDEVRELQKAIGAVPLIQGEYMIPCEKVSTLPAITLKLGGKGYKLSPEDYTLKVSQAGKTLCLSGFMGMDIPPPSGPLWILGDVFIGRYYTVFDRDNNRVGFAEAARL
Assay: In vitro enzymatic Cathepsin D (Cat D) FRET assay
Assay type: biochemical
Conditions: read-out: CatD IC50
pIC50: −log10 of the molar value.
quantity: pIC50

COc1cnc2c(Nc3ccc(F)c([C@]4(C)CS(=O)(=O)C5(CCCC5)C(N)=N4)c3)nccc2c1	3.55
C[C@]1(F)C(N)=N[C@](C)(c2cc(Nc3nccc4cc(Cl)cnc34)ccc2F)CS1(=O)=O	4.00
C[C@]1(F)C(N)=N[C@](C)(c2cc(Nc3ncc(F)c4cc(Cl)cnc34)ccc2F)CS1(=O)=O	4.49
CC1(C)C(N)=N[C@](C)(c2cc(Oc3ncc(F)c(C(F)(F)F)c3F)ccc2F)CS1(=O)=O	4.17

A: Cc1cc(OC(F)F)cnc1C(=O)Nc1ccc(F)c([C@]2(CF)CS(=O)(=O)C3(CC3)C(N)=N2)c1
B: Cc1ccnc(Oc2ccc(F)c([C@]3(C)CS(=O)(=O)C(C)(C)C(N)=N3)c2)c1
C: COc1ccnc(Oc2ccc(F)c([C@]3(C)CS(=O)(=O)C(C)(C)C(N)=N3)c2)c1
Input: Order each entry by recorded pIC50, climbing from the minimum. Put the labels in the requested order and write them down.
Output: B, C, A

Cited source: patent US20140107109A1
